# System: Caco-2
# assay.summary: cell viability relative to DMSO; higher = less toxic
# measurement.parameters: 72 h; 100 nM
Let's look at some compounds and their measured cell viability.
property.label: cell viability (%)

>>> assay_value("Cc1cc(OCCN2CCOCC2)nn1-c1ccc2ccccc2c1")
96.4
>>> assay_value("CC(=O)N1CCC[C@H]1C(=O)N[C@@H](Cc1cnc[nH]1)C(=O)N[C@@H](CO)C(=O)N[C@@H](CS)C(=O)N[C@@H](CC(N)=O)C(N)=O")
97.5
>>> assay_value("C[C@@H](O)[C@H]1C(=O)N2C(C(=O)O)=C(SCCNC=N)C[C@H]12")
98.2
>>> assay_value("C#Cc1cccc(Nc2ncnc3cc(OCCOC)c(OCCOC)cc23)c1")
98.2
>>> assay_value("CNc1ncnc2c1ncn2[C@@H]1O[C@H](CO)[C@@H](O)[C@H]1O")
98.5
>>> assay_value("O=C(/C=C\\n1cnc(-c2cc(C(F)(F)F)cc(C(F)(F)F)c2)n1)NNc1cnccn1 [selinexor]")
89
>>> assay_value("COc1cccc([C@H](O)C2CCN(CCc3ccc(F)cc3)CC2)c1OC")
101
>>> assay_value("CCN(CC)Cc1cc(Nc2ccnc3cc(Cl)ccc23)ccc1O")
90.2
